Recorded values, source ChEMBL document CHEMBL1132231.

- experimental system: D(2) dopamine receptor (Rattus norvegicus)
- Sequence (P61169 whole entry): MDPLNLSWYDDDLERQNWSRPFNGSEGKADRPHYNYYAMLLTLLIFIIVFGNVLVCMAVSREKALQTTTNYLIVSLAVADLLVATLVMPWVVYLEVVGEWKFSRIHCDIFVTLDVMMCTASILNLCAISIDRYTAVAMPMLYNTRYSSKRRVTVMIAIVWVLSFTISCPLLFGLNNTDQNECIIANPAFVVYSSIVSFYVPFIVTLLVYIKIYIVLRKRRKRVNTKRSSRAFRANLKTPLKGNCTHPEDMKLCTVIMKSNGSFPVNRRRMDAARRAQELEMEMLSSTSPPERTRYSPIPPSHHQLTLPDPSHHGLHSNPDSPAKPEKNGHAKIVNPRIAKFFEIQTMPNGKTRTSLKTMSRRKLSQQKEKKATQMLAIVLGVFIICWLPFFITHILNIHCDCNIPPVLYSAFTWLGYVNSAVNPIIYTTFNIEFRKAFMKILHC
- assay overview: In vitro high binding affinity towards Dopamine receptor D2 by the displacement of [3H]quinpirole radioligand in rat striatal membranes
- Format: cell membranes, Membrane
pKi: −log10 of the molar value.
readout label: pKi

Here is how some compounds turned out for pKi.
Fc1ccc(CNCCOc2ccc(Cl)c3[nH]cc(Cl)c23)cc1    7.30
O=C(c1c[nH]c2cccc(OCCNCc3ccccc3)c12)C(F)(F)F    8.52
Clc1c[nH]c2cccc(OCCNCCCCc3ccccc3)c12    8.32
Clc1ccc(OCCNCc2cccs2)c2c(Cl)c[nH]c12    7.91
O=C1Cc2c(OCCNCc3ccc(-c4ccccc4)cc3)ccc(Cl)c2N1    7.76
NCCOc1cccc2c1CC(=O)N2    8.16

P: Clc1ccc(CNCCOc2ccc(Cl)c3[nH]cc(Cl)c23)cc1
Q: Clc1ccc(OCCNCc2ccccc2)c2cc[nH]c12
# input Field: entry with larger pKi (options P / Q ). In your reply, give the label of the chosen option.
# output Q
